# assaySystem: S1P1 (Homo sapiens)
# Sequence (P21453 whole entry): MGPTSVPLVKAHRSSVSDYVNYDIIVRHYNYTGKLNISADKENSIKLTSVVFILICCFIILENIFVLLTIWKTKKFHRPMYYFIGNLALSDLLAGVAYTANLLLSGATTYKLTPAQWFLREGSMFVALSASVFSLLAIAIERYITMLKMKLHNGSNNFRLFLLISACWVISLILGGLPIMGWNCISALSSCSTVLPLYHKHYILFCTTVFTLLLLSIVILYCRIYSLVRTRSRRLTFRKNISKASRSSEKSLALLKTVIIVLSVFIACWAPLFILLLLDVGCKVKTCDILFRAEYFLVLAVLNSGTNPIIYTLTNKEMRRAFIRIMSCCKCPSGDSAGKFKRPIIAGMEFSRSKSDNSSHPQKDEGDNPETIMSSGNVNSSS
# testSummary: S1P1 internalization assay in S1P1-U2OS cells (cell imaging)
# Assay type: cell-based
# experimentalContext: U2OS cells expressing S1P1-EGFP, 1 hour
pEC50: −log10 of the molar value.
Quick reference: pEC50 of the listed items.
reportedEndpoint: pEC50

* Cc1ccccc1-c1ccc(-c2nc(-c3ccc(CN(C)CC(=O)O)c(F)c3F)no2)cc1C(F)(F)F | 7.74
* Cc1cc(-c2noc(-c3ccc(-c4ccccc4C)c(C(F)(F)F)c3)n2)ccc1CN(C)CC(=O)O | 7.76
* Cc1cc(CN(C)CC(=O)O)ccc1-c1noc(-c2ccc(-c3ccccc3C)c(C(F)(F)F)c2)n1 | 7.75
* COCc1cc(-c2nc(-c3cccc(CN(C)CC(=O)O)c3)no2)ccc1-c1ccccc1C(F)(F)F | 7.95
* Cc1cc(-c2nc(-c3ccc(CN(C)CC(=O)O)cc3Cl)no2)ccc1-c1ccccc1C(F)(F)F | 7.29
* Cc1ccccc1-c1ccc(-c2nc(-c3ccc(CN(C)CCC(=O)O)cc3)no2)cc1C(F)(F)F | 8.69
* COCc1cc(-c2nc(-c3ccc(CN(C)CC(=O)O)c(F)c3)no2)ccc1-c1ccccc1C(F)(F)F | 7.86
* COCCN(CC(=O)O)Cc1ccc(-c2noc(-c3ccc(-c4ccccc4C)c(C(F)(F)F)c3)n2)cc1 | 7.58
* CN(CC(=O)O)Cc1cc(F)cc(-c2noc(-c3ccc(-c4ccccc4)c(C(F)(F)F)c3)n2)c1 | 7.92
* CN(CC(=O)O)Cc1ccc(-c2noc(-c3ccc(-c4ccccc4F)c(C(F)(F)F)c3)n2)cc1 | 8.19
* Cc1ccccc1-c1ccc(-c2nc(-c3ccc(CN(C)CCCC(=O)O)cc3)no2)cc1C(F)(F)F | 8.44
* Cc1cc(-c2nc(-c3ccc(CN(C)CC(=O)O)c(F)c3F)no2)ccc1-c1ccccc1C(F)(F)F | 7.16
* CCOc1cc(-c2nc(-c3ccc(CN(C)CC(=O)O)cc3)no2)ccc1-c1ccccc1C(F)(F)F | 8.04
* Cc1ccccc1-c1ccc(-c2nc(-c3ccc(Cl)c(CN(C)CC(=O)O)c3)no2)cc1C(F)(F)F | 7.34
* COCc1cc(-c2nc(-c3cccc(CN(C)CC(=O)O)c3)no2)ccc1-c1ccc(F)cc1C(F)(F)F | 7.60
